Each item that follows carries a reported pEC50.
Biological target: T1, human CD276 protein (human, UniProt Q5ZPR3 29-534)
T1 construct: whole, on cells; for SKOV3 and the other cancer lines the protein is the cells' own; also called B7-H3; B7H3
T1 sequence (looked up): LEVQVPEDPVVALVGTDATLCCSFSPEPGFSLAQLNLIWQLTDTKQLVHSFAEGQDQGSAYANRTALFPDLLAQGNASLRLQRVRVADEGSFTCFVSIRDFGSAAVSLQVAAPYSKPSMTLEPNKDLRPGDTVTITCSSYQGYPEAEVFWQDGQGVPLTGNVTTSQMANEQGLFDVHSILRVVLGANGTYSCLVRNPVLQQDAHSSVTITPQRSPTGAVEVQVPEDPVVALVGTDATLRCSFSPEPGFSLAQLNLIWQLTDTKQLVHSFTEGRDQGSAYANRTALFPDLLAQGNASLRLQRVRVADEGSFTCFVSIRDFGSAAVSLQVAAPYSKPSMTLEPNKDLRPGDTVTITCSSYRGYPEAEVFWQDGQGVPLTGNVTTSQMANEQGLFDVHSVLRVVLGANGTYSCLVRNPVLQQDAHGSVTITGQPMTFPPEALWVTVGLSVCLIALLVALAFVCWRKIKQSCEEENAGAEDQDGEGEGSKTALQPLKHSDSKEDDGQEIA
Test: FACS titration on SKOV3 cells (MFI against Conc. (nM)); unit taken from the concentration axis
# pEC50 = -log10(concentration in molar units)

Before answering, review these 2 worked examples.
INSERT INTO assay_data (binder, endpoint_name, obs_value) VALUES
  ('hVH5-hVL3-10 (antibody, V domains shown) VH: EVQLVESGGGLVQPGRSLRLSCTTSGFTLSDYYMSWVRQAPGKGLEWVGFMRNKANGYTTEYSASVRGRFTISRDTSKSIIYLQMNSLKTEDTAVYYCVRDRDGRPFAYWGQGTLVTVSS VL: DIQMTQSPSSLSASVGDRVTITCKSSQSLLNSINQKNFLTWYQQKPGKAPKLLIYWASTRESGVPSRFSGSGSGTDFTLTISSLQPEDLATYYCQNDYTYPLTFGQGTKLEIK', 'pEC50', 8.53),
  ('hVH4-hVL2-10 (antibody, V domains shown) VH: EVQLVESGGGLIQPGGSLRLSCATSGFTLSDYYMSWVRQPPGKGLEWVSFMRNKANGYTTEYSASVRGRFTISRDTSKSTIYLQMNSLRAEDTAVYYCVRDRDGRPFAYWGQGTLVTVSS VL: DIVMTQSPLSLPVTPGEPASISCKSSQSLLNSINQKNFLTWYLQKPGQSPQLLIYWASTRESGVPDRFSGSGSGTDFTLKISRVEAEDLGVYYCQNDYTYPLTFGQGTKLEIK', 'pEC50', 8.35);

Note: attention shifts to another entry.
If you can, please state the reported pEC50 value of hVH5-hVL1-10 (antibody, V domains shown) VH: EVQLVESGGGLVQPGRSLRLSCTTSGFTLSDYYMSWVRQAPGKGLEWVGFMRNKANGYTTEYSASVRGRFTISRDTSKSIIYLQMNSLKTEDTAVYYCVRDRDGRPFAYWGQGTLVTVSS VL: DIVMTQSPDSLAVSLGERATINCKSSQSLLNSINQKNFLTWYQQKPGQPPKLLIYWASTRESGVPDRFSGSGSGTDFTLTISSLQAEDLAVYYCQNDYTYPLTFGQGTKLEIK .
8.58

Data origin, for the record: patent US20240400689A1
